Value source: patent US10131642B1

- system_name: cortisol synthase (CYP11B1) (Macaca fascicularis, UniProt A0A2K5ULY1)
- test_method_notes: Inhibition of cortisol synthesis (cynomolgus adrenal mitochondria, cortisol by mass spectrometry)
- Format: biochemical, cynomolgus monkey
- assay_context: cynomolgus adrenal gland mitochondria, 11-deoxycortisol as substrate, cortisol measured as product; read-out: CYP11B1 Inhibition IC50
test_readout: IC50 (µM)

A: CC1(C)CC(=O)c2c(noc2Cc2ccc3c(c2)NC(=O)CO3)C1 [Cpd 35]
B: CS(=O)(=O)CCCOc1ccc(Cc2onc3c2C(=O)CC2(CCC2)C3)cc1 [Cpd 50]
// max by IC50 over [ A , B ] Kindly give the label for the entry you pick. A
(A: 5.2 µM, B: 0.58 µM)

a: O=C1CC(CC2CC2)Cc2noc(Cc3ccc(C(=O)N4CC[C@@H](O)C4)cc3)c21 (some centres unmarked) [Cpd 63]
b: CC1CC(=O)c2c(noc2Cc2ccc(C(=O)O)cc2)C1 (centres unmarked) [Cpd 41]
// max by IC50 over [ a , b ] Kindly give the label for the entry you pick. b

A: CC(=O)N1CCC(Cc2onc3c2C(=O)CC(C(C)C)C3)CC1 (single isomer, unassigned) [Cpd 15A]
B: N#Cc1ccc(Cc2onc3c2C(=O)CC2(CCC2)C3)cc1 [Cpd 38]
I'm curious whether A or B has the smaller IC50 number. Which is it? Kindly give the label for the entry you pick. B

A: CC(C)C1CC(=O)c2c(noc2Cc2ccc(C#N)cc2)C1 (single isomer, unassigned) [Cpd 39B]
B: CC1(C)CC(=O)c2c(noc2Cc2ccc(C(=O)NCC3(CO)CCCC3)cc2)C1 [Cpd 70]
C: N#Cc1ccc(Cc2onc3c2C(=O)CC(C2CCOCC2)C3)cc1 (centres unmarked) [Cpd 12]
D: NC(=O)c1ccc(Cc2onc3c2C(=O)CC2(CCC2)C3)cc1 [Cpd 77]
E: CC1(C)CC(=O)c2c(noc2Cc2ccc(C#N)cc2)C1 [Cpd 23]
Sort the 5 molecules by IC50; largest first, smallest last. List the labels in the requested order. E, C, B, A, D
(E: 74 µM, C: 51 µM, B: 11 µM, A: 3.4 µM, D: 0.13 µM)

I: CC1(C)Cc2noc(Cc3ccc(C(=O)NCCS(C)(=O)=O)cc3)c2C(=O)O1 [Cpd 94]
II: CN1CCN(C(=O)c2ccc(Cc3onc4c3C(=O)OC(C)(C)C4)cc2)CC1=O [Cpd 97]
III: CC1CC(=O)c2c(noc2Cc2ccc(C(N)=O)cc2)C1 (centres unmarked) [Cpd 74]
Sort the 3 molecules by IC50; largest first, smallest last. List the labels in the requested order. II, I, III

I: CC1(C)CC(=O)c2c(noc2Cc2ccc(C(=O)NCCC#N)cc2)C1 [Cpd 68]
II: CC1(C)CC(=O)c2c(noc2Cc2ccc(OCCCC(N)=O)cc2)C1 [Cpd 78]
// max by IC50 over [ I , II ] Kindly give the label for the entry you pick. I
(I: 7.8 µM, II: 3.3 µM)

I: CC(C)C1CC(=O)c2c(noc2Cc2ccc(OCCCS(C)(=O)=O)cc2)C1 (centres unmarked) [Cpd 47]
II: CC1(C)CC(=O)c2c(noc2Cc2ccc(C#N)c(F)c2)C1 [Cpd 37]
III: CC1(C)CC(=O)c2c(noc2Cc2cccc(F)c2)C1 [Cpd 31]
IV: CC1CC(=O)c2c(noc2Cc2ccc(OCCCS(C)(=O)=O)cc2)C1 (centres unmarked) [Cpd 48]
Sort the 4 molecules by IC50; largest first, smallest last. List the labels in the requested order. II, III, IV, I

a: CC1(C)CC(=O)c2c(noc2Cc2ccc(Br)cc2)C1 [Cpd 33]
b: CC1(C)CC(=O)c2c(noc2Cc2ccc(C(=O)NCC3(O)CC3)cc2)C1 [Cpd 69]
c: CC(C)C1CC(=O)c2c(noc2CC2CCOCC2)C1 (centres unmarked) [Cpd 7]
d: CC(C)C1CC(=O)c2c(noc2Cc2ccc(C#N)cc2)C1 (single isomer, unassigned) [Cpd 39A]
Sort the 4 molecules by IC50; largest first, smallest last. List the labels in the requested order. c, b, d, a
(c: 20 µM, b: 13 µM, d: 8.3 µM, a: 4.1 µM)
